Source of measurements: paper doi:10.1101/2020.05.04.070177

target: TRIM25 CC-PRY/SPRY (UniProt Q14258 189-630); experiment: ITC; second fitted site, N 0.10; ITC and filter binding: 20 mM MES pH 6.5, 75 mM NaCl, 0.5 mM TCEP (ITC 20 C, filter binding on ice); NMR: 20 mM Na phosphate pH 6.5, 150 mM NaCl, 2 mM TCEP, 293 K; settings: protein: recombinant; tags: His-Trx (removed); chain copies: 2; hairpin
Sequence (Q14258 189-630): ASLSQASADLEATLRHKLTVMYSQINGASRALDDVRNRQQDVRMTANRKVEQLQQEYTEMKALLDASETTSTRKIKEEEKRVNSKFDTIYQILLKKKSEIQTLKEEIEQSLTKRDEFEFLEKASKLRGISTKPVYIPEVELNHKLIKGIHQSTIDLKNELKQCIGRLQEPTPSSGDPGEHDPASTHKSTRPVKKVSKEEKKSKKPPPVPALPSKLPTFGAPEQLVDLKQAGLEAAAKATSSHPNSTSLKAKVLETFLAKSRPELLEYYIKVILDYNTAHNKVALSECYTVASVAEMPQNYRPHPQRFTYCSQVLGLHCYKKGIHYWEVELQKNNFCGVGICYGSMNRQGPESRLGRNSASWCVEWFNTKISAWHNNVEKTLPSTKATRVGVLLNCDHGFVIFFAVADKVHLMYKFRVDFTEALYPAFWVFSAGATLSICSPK
experimentalReadout: pKd
Would you please state pKd, meaning minus log10 of the concentration in mol/L, as a bare number?

Documented pKd of UUUUAUCUGAGUUGGAGGUGAAG (structured_RNA) [Lnczc3h7a-SL] : 5.05
